Biological target: Intercellular adhesion molecule (ICAM-1), Integrin alpha-L/beta-2 (Homo sapiens) (UniProt P20701+P05362+P05107)
Conditions: JY-8
Description: 80% inhibition of JY-8 cell adhesion to ICAM-1 via leukocyte function-associated antigen-1 (LFA-1) withouot serum
experimental_readout: IC80
Hi, when you answer, please include the unit after the number. Thanks!

Record excerpt, results attached:
- compound: "CC(C)c1ccccc1Sc1ccc(C2CC2C(=O)NCCCC(=O)O)c(Cl)c1Cl (stereo in doubt; 15a)"
  IC80: "9 nM"
- compound: "CC(C)c1ccccc1Sc1ccc(C2CC2C(=O)NCC(=O)O)c(Cl)c1Cl (stereo in doubt; 13a)"
  IC80: "95 nM"
- compound: "O=C(O)C1CCCN(c2ccccc2Sc2ccc(C3CC3C(=O)NCCCN3CCCC3=O)c(Cl)c2Cl)C1 (stereo in doubt; 28)"
  IC80: "26 nM"
- compound: "O=C(O)C1CCCN(c2ccccc2Sc2ccc(C3CC3C(=O)NCCCN3CCCC3=O)c(Cl)c2Cl)C1 (stereo in doubt; 27)"
  IC80: "40 nM"
- compound: "CC(C)c1ccccc1Sc1ccc(C2CC2C(=O)N2CCCCC2C(=O)O)c(Cl)c1Cl (stereo in doubt; 16a)"
  IC80: "110 nM"

Reported IC80 of CC(C)c1ccccc1Sc1ccc(C2CC2C(=O)N2CCCC(C(=O)O)C2)c(Cl)c1Cl (stereo in doubt; 17a) : 25 nM

Reported IC80 of O=C(O)C1CCCN(c2ccccc2Sc2ccc(C3CC3C(=O)NCCCN3CCCC3=O)c(Cl)c2Cl)C1 (stereo in doubt; 29) : 142 nM
